Assay: yeast display, Sf9 membrane polyspecificity reagent, FACS + sequencing; frameworks hold sequencing errors
reported endpoint: polyreactivity (PSR sort gate)

Here is how some sequences turned out for polyreactivity (PSR sort gate).
QVQLVESGGGLVQAGGSLRLSCAASGRIFHTYAMGWYIQAPGKERELVAAISRSGGSTYYADSVKGRFTISRDNAKNTVYLQMNSLKPEDTAVYYCAADIRGPYGNRYKFYYWGQGTQVTVSS = high polyreactivity
QVQLVESGGGLVQAGGSLRLSCAASGSIIDYNVMGWYRQAPGKEREFVAGISSTGGSTYYADSVKGRFSNSRDNAKHTVYLQMNSLKPEDTAVYYCAAYWNRAFRLDYWGQGTQVTVSS = high polyreactivity
QVKLVESGRGLVQAGGSLRLSCAASGITFISNAMAVYRQAPGKERELVAAISYRGGSTYYADSVKGRFTISRDNAKNTVYLQMNSLKPEDTAVYDCAARFHYPGGPRYYYWGQGTQVTVSS = high polyreactivity
QVQLVESGGGLVQAGGSLRLSCAASGGIFPGNTMGWYRLAPRKESELVAAISNGVSTNYADSVKGRFTISRDNAKNTVYLQMNSLKPEDTAVYYCAADWSWWDGEDYHFEYDYWGQGTQVTVSS = low polyreactivity

For the next question, use this sequence.
Read off the recorded polyreactivity (PSR sort gate) for QVQLVESGGGLVQAGGSLRLSCAASGITFTSYAMGWYRQATGKERELVAAITSSGSSTYYADSVKGRFTISRDNAKNTVYLQMNSLKPEDTAVYYCAAKHVGWYVQEEDYWGQGTQVTVSS
low polyreactivity

----------
Assay: yeast display, Sf9 membrane polyspecificity reagent, FACS + sequencing; frameworks hold sequencing errors
reported endpoint: polyreactivity (PSR sort gate)

QVQLVESGGGLVQAGGSLRLSCAASGFIFDWNTMGWYRQAPGQERELVAAITESSGSTYYADSVKGRFTISRDNAKNTVYLQMNSLKPEDTAVYYCAAESLISWRYDYWGQGTQVTVSS = low polyreactivity
QVQLVESSGGLVQAGGSLRLSCAASGSIFLYNAMGWYRKAPGTEREMVAAISKSGGSTYYADSVKGRFTISRDNAKYTVYLQMNSLKPEDTAVYYCAAGYGRRIRYGCEYDYWGQGTQVTVSS = low polyreactivity
QVQLVESGGGLVQAGGSLRLSCAASGFIFLPYVMGWYRQAPGKERELVAAISGGGGITYYADSVKGRFTISRDNAKNTVYLQMNSLKPEDTAVYYCAADDLHWLNSKRYSGRDYWGQGTQVTVSS = low polyreactivity

----------
Assay: yeast display, Sf9 membrane polyspecificity reagent, FACS + sequencing; frameworks hold sequencing errors
reported endpoint: polyreactivity (PSR sort gate)

QVQLVESGGGLVQAGGSLRLSCAASGRTFRRNTMGWYRQATGKERAFVAAITFSGVRTYYADSVKGRFTISRDNAKNTVYLQMNSLKPEDTAVYYCANSRQYIGGFDYWGQGTQVTVSS = high polyreactivity
QVQLVESGGGLVQARGSLRLSCAASGFTFERYTMGWYRQAPGKERELVATISRRSGRTSYADSVKGRFTISRDNEMNSVYLQMNSLKPEDTAVYYCAVDDAYPDRYDYWGQGPQVTVSS = high polyreactivity

----------
Assay: yeast display, Sf9 membrane polyspecificity reagent, FACS + sequencing; frameworks hold sequencing errors
reported endpoint: polyreactivity (PSR sort gate)

QVQLVESGGGLVQAGGSLRLSCAASGITFGGNAMGWYRQAPGKERELVAAISGRGGRTYYADSVKGRFTISRDTAKNTVYLQMNSLKPEDTAVYYCAGGGRVRYDYWGQGTQVTVSS = low polyreactivity
QVQLVESGGGLVQAGGSLRLSCAASGLIFEVNVMGWYRQAPGTERELVAAITTGGGSTYYADSVKGRFTISRDNAKNTVYLQMNSLKPEDTAVYYCATDYSSYLYDYYTGVGGYEYWGQGTQVTVSS = low polyreactivity
HVQLVESGGGLVQAGGSLRLSCAASGLTFQYNAMGWYRQAPGKERELVATISQSGGSTYYADSVKGRFTISRDNAKNTVYLQMNSLKPEDTAVYYCAAYRAWTWRIRYDYWGQGTQVTVSS = low polyreactivity
QVQLVESGGGLVQAGGSLRLSCAASGIIFWYYAMGWYRQAPGKERELVASISGTGGTTYYADSVKGRFTISRDNAKNTVYLQMNSLKPEDTAVYYCAALSGQHDYDYWGQVTQVTVSS = low polyreactivity
